Below is a list of entries, each paired with its recorded % Inhibition (human Factor 7 mRNA levels) value.
tested on: human Factor 7 mRNA; assay: Antisense inhibition of human Factor 7 mRNA in HepB3 cells, 50 nM antisense oligonucleotide, lipofectin; assay type: cell-based; conditions: oligonucleotides targeted to nucleobases 13760 to 13789 of SEQ ID NO: 1 (Table 10)
Strand notation (5' to 3'): a small letter for the sugar, then the base; units joined by * are phosphorothioate-linked, units joined directly phosphodiester-linked; [ ] holds rarer units or linkages, { } end groups; capitals alone tell only the bases. e = 2'-O-(2-methoxyethyl) (MOE); [5mC] = 5-methylcytosine; d = 2'-deoxy (DNA)
quantity measured: % Inhibition (human Factor 7 mRNA levels)

{"columns": ["substance", "meas value"],
 "data": [
  ["422176 (antisense e[5mC]*e[5mC]*eG*d[5mC]*d[5mC]*dG*dG*d[5mC]*dT*d[5mC]*dT*dG*d[5mC]*dT*d[5mC]*dA*dT*e[5mC]*e[5mC]*e[5mC]) [compound 422176]", "52%"],
  ["422184 (antisense eT*eG*e[5mC]*dG*d[5mC]*d[5mC]*dA*d[5mC]*d[5mC]*d[5mC]*dG*d[5mC]*d[5mC]*dG*dG*d[5mC]*dT*e[5mC]*eT*eG) [compound 422184]", "55%"],
  ["422254 (antisense e[5mC]*e[5mC]*d[5mC]*dG*d[5mC]*d[5mC]*dG*dG*d[5mC]*dT*d[5mC]*dT*dG*d[5mC]*dT*e[5mC]*eA*eT*e[5mC]*e[5mC]) [compound 422254]", "42%"]
]}
